Value source: the Human Domainome abundance scans (Beltran et al. 2025)

B1: WW domain-containing transcription regulator protein 1, residues 116 to 162; numbered along this chain, Q9GZV5 (parent)
chain: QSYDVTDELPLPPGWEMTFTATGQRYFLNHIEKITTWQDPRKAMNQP

Variants of: B1
PROTOCOL_TEXT: abundance fitness (aPCA) (normalised: wild type 0, dead -1); higher = more abundant; growth selection in yeast, the domain comes from the species named
APPLIED_CONDITIONS: Homo sapiens
We use -0.3 as the dividing line for abundance fitness: on or above the line is True, below is False.

Look over these answered cases.
{"MUTANT": "I34R", "CLASS_ASSIGNMENT": "True"}
{"MUTANT": "D39R", "CLASS_ASSIGNMENT": "False"}
{"MUTANT": "L9P", "CLASS_ASSIGNMENT": "True"}
{"MUTANT": "E16V", "CLASS_ASSIGNMENT": "True"}
{"MUTANT": "R25E", "CLASS_ASSIGNMENT": "True"}
{"MUTANT": "D4I", "CLASS_ASSIGNMENT": "True"}
{"MUTANT": "I31S", "CLASS_ASSIGNMENT": "True"}
{"MUTANT": "S2A", "CLASS_ASSIGNMENT": "True"}

Could you verify whether the entry P13D shows abundance fitness of no less than -0.3?
True

Assess whether reported abundance fitness for D39S sits at -0.3 or higher.
False

Entry E16W : is its abundance fitness no less than -0.3?
False

Threshold query (abundance fitness >= -0.3) on T20E
False

Identify whether the reported abundance fitness of the following variant is -0.3 or greater: W15L
False

Check the entry R41N : does abundance fitness equal or exceed -0.3?
False

Check the entry R41M : does abundance fitness equal or exceed -0.3?
False

# check: abundance fitness of L11A is greater than or equal to -0.3
False

Could you please find out whether E32S has abundance fitness that meets -0.3 or exceeds it?
True

Decide: is the reported value of abundance fitness for D39F equal to or greater than -0.3?
False

Confirm if abundance fitness reported for the variant A21M is -0.3 or above.
True

Is the recorded value of abundance fitness equal to or greater than -0.3 for this variant? N45C
True

Does the reported abundance fitness for I34V fall at or above the -0.3 mark?
True

Has T18D a recorded abundance fitness greater than or equal to -0.3?
True

Say whether D7W shows abundance fitness of -0.3 or more.
False
